# MEASUREMENT DESCRIPTION: chemical genetic growth profiling, strain panel (AID 1159580);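 further: tested at 20 µM; growth read once vehicle control cultures reached saturation at 30 °C; 1 = growth at the plate median or of vehicle wells; lower values mean less growth of the strain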
# STATED CONDITIONS: S. cerevisiae deletion strains, growth OD, locus YLR262C, strain YPT6 (second series), hits give low values
In all, about 5,500 compounds went through this assay and about 2,000 (36%) were called active. About 18% were inconclusive and are not listed. This is one part of the list.
READOUT NAME: normalized growth
Provide a numeric answer; units are not to be included.

Reference set (6 entries):
COMPOUND	ASSAY VALUE
NC/C=C/C(=O)O	1.01
CC(C)=CCc1c(O)cc2oc(C)cc(=O)c2c1O	0.781
CC(=O)O[C@H]1C(=O)[C@@]2(C)C([C@H](OC(=O)c3ccccc3)[C@]3(O)C[C@H](OC(=O)[C@H](O)[C@@H](NC(=O)c4ccccc4)c4ccccc4)C(C)=C1C3(C)C)[C@]1(OC(C)=O)CO[C@@H]1C[C@@H]2O (some centres not stated)	1.02
CC(=O)O[C@H]1C(=O)[C@@]2(C)C([C@H](OC(=O)c3ccccc3)[C@]3(O)C[C@H](O)C(C)=C1C3(C)C)[C@]1(OC(C)=O)CO[C@@H]1C[C@@H]2O (some centres not stated)	1
COc1cc(O)c2c(=O)cc(C)oc2c1CC=C(C)C	0.827
O=[N+]([O-])O[C@H]1CO[C@H]2[C@@H]1OC[C@H]2O[N+](=O)[O-]	1

API: the following record is the query input.
State the recorded normalized growth for this entry: COc1ccc(C[C@H]2NC[C@H](O)[C@H]2OC(C)=O)cc1 0.769
